Would you kindly list fluorescence intensity for each of these molecules?
Experiment: compound fluorescence in toxin protease inhibitor counterscreen, primary screen, artefact control for toxin protease inhibitor project, biochemical, multiplex microsphere, HTS (AID 624483)
Settings: compound autofluorescence counterscreen, microsphere flow cytometry; active compounds read high
Hit rate of the full screen: of about 360,000 compounds, about 11,000 (3.1%) were called active. Roughly 2% stayed inconclusive and do not appear here. The list comes from a sample in which actives are over-represented; it also holds close analogues and randomly drawn compounds.
Hey, just send me the number, nothing else.

Q. Look up fluorescence intensity for this molecule: "CC(=O)c1c(C)n([O-])c2ccccc2[n+]1=O"
A. 23100

Q. Look up fluorescence intensity for this molecule: "Cc1ccc(CNC(=O)CSc2nnc3c(n2)[nH]c2ccc(F)cc23)cc1"
A. 5580

Q. Look up fluorescence intensity for this molecule: "Cc1ccc(-n2nc3cc(Cl)c(NC(=O)c4ccco4)cc3n2)cc1"
A. 20600

Q. Look up fluorescence intensity for this molecule: Cc1ccc(C)c(C(O)c2ncc(-c3cccc4ccccc34)[nH]2)c1 (centres undefined)
A. 3640

Q. Look up fluorescence intensity for this molecule: "COC(=O)[C@]12CCCCC=C1N(Cc1ccco1)C(=O)[C@H](CC(=O)NCCCCc1ccccc1)C2"
A. 5100

Q. Look up fluorescence intensity for this molecule: "Cc1ccc(-n2nc3cc(C)c(NC(=O)c4cccnc4)cc3n2)cc1"
A. 3240

Q. Look up fluorescence intensity for this molecule: O=C(c1cc(C2CCCCN2S(=O)(=O)c2ccccc2)on1)N1CCOCC1 (centres undefined)
A. 3020

Q. Look up fluorescence intensity for this molecule: CCC(C)(C(=O)Nc1ccccc1C)N(C(=O)CNC(C)=O)c1ccc(C)cc1 (centres undefined)
A. 2200

Q. Look up fluorescence intensity for this molecule: "CCCCCCCCN1C(=O)[C@H](CC(=O)NCc2cccc3ccccc23)C[C@@]2(C(=O)OC)CCCCC=C12"
A. 4630
